Tested on: Escherichia coli TOP10
method: shrunken log2 fold change of peptide-encoding DNA abundance (4.5 h post-induction vs induction); higher = less antimicrobial activity (less host growth inhibition)
reportedConditions: time post-induction: 4.5 h; library: site-saturation at positions 5, 18, 19, 20
Classification by shrunken log2 fold change follows these ranges: 1: < -0.07; 2: ≥ -0.07 and < 0.1; 3: ≥ 0.1

Q: Where would "RRIRRRPPRLPRPRPRPVEFPRP" land among the classes by reported shrunken log2 fold change?
Result: 2

Q: Form: Item = "RRIRVRPPRLPRPRPRPEDHPRP" ; Class = ?
Result: 2

Q: Field: class (shrunken log2 fold change) — entry: "RRIRRRPPRLPRPRPRPLFQPRP"
Result: 3

Q: Sort into band: "RRIRCRPPRLPRPRPRPFMCPRP"
Result: 1

Q: Assign a bin to "RRIRWRPPRLPRPRPRPYIMPRP"
Result: 1

Q: Which category fits this record: "RRIRPRPPRLPRPRPRPTALPRP"
Result: 2

Q: Which category does the recorded shrunken log2 fold change put "RRIRKRPPRLPRPRPRPPRTPRP" in?
Result: 3

Q: In plain terms, what class is "RRIRVRPPRLPRPRPRPKTCPRP" ?
Result: 2

Q: Place this sequence in its band: "RRIRYRPPRLPRPRPRPPLVPRP"
Result: 3

Q: # classify by shrunken log2 fold change band: "RRIRARPPRLPRPRPRPYIKPRP"
Result: 1

Q: Using the reported shrunken log2 fold change, which band applies to "RRIRNRPPRLPRPRPRPFALPRP" ?
Result: 3

Q: Each sequence maps to one class by shrunken log2 fold change. Which class for "RRIRERPPRLPRPRPRPNKDPRP" ?
Result: 1

Q: Field: class (shrunken log2 fold change) — entry: "RRIRKRPPRLPRPRPRPNRSPRP"
Result: 2

Q: Please report the category associated with "RRIRMRPPRLPRPRPRPAEIPRP" , nothing else.
Result: 3

Q: Given "RRIRLRPPRLPRPRPRPCMQPRP" , name the class its shrunken log2 fold change places it in.
Result: 1

###

Tested on: Escherichia coli TOP10;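 note: peptides expressed intracellularly from a pBAD plasmid library in pooled LB shake-flask culture, induced with 0.3% L-arabinose, DNA abundance read by NGS, three biological replicates, DESeq2 with apeglm shrinkage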
method: shrunken log2 fold change of peptide-encoding DNA abundance (4.5 h post-induction vs induction); higher = less antimicrobial activity (less host growth inhibition)
reportedConditions: time post-induction: 4.5 h; library: site-saturation at positions 5, 18, 19, 20
assayReadout: shrunken log2 fold change
Answer with a bare number; do not write a unit.

Q: Which shrunken log2 fold change is listed for "RRIRARPPRLPRPRPRPFYPPRP" ?
Result: -0.104

Q: I would be grateful if you could share the reported shrunken log2 fold change for "RRIRQRPPRLPRPRPRPTSKPRP" .
Result: -0.189

Q: Item under review: "RRIRDRPPRLPRPRPRPYWLPRP" . Reported shrunken log2 fold change?
Result: -0.236

Q: Entry "RRIRFRPPRLPRPRPRPTNIPRP" : reported shrunken log2 fold change = ?
Result: -0.959

Q: What does the record list as shrunken log2 fold change for "RRIRNRPPRLPRPRPRPDYKPRP" ?
Result: 0.0574

Q: Field request: shrunken log2 fold change | item: "RRIRPRPPRLPRPRPRPGHYPRP"
Result: -0.0973

Q: So what's the measured shrunken log2 fold change for this one? "RRIRKRPPRLPRPRPRPKYGPRP"
Result: -0.206

Q: Could you tell me which shrunken log2 fold change is on file for "RRIRGRPPRLPRPRPRPWHMPRP" ?
Result: -0.345

Q: For the sequence shown here, "RRIRGRPPRLPRPRPRPGQNPRP" , give the reported shrunken log2 fold change.
Result: 0.0139

Q: Need shrunken log2 fold change of "RRIRLRPPRLPRPRPRPVYSPRP" , thanks.
Result: -0.881

Q: shrunken log2 fold change for "RRIRQRPPRLPRPRPRPCNSPRP" ?
Result: -0.0261

Q: For "RRIRPRPPRLPRPRPRPYYHPRP" , what is its reported shrunken log2 fold change?
Result: -0.794

Q: For the sequence "RRIRMRPPRLPRPRPRPYKQPRP" , what shrunken log2 fold change is on record?
Result: -0.000436

Q: Entry under review: "RRIRVRPPRLPRPRPRPKYPPRP" . Reported shrunken log2 fold change?
Result: -0.188

Q: For "RRIRGRPPRLPRPRPRPYMHPRP" , what is its reported shrunken log2 fold change?
Result: -0.355
